Tested on: RPMI-8226 leukemia
Experiment Description: NCI-60 one-dose screen, 48 h (100 = growth as untreated, 0 = no growth, -100 = all killed)
Run Conditions: 10 µM unless noted
Procedure: Growth inhibition of the RPMI-8226 human tumor cell line is measured as a screen for anti-cancer activity. Cells are grown in 96 well plates and exposed to the test compound for 48 hours. Compounds are tested at a single concentration, which is 10^-5 M for most compounds. The reported endpoint is percent growth (GI% or GIPRCNT), where numbers from 0 - 100% represent growth inhibition, and numbers from -100% - 0 represent cell death. For example, a value of 40 represents 60% growth inhibition. […]
The panel holds about 83,000 compounds, 20% with a hit somewhere; the sample as a whole holds those more often.
Measurement Label: growth (%)
Numbers only, in %.

# Structure As Smiles, Study System, growth (%)
data = [
    ("O=S(=O)(c1ccccc1)N1CCCN(c2nc(-c3ccccc3)nc3nc(-c4ccccc4)oc23)CC1", "RPMI-8226 leukemia", 98.1),
]

# batch size: 3; output growth per entry
1. CN1CCCc2cc(/C=C3/SC(=S)N(CCc4ccc(O)cc4)C3=O)ccc21
2. CCn1cc(C(=O)NN=C2CCCCCC2)c(=O)c2ccc(C)nc21
3. COc1ccc(-c2ccc(-c3ccc(C(=N)N)cn3)s2)cc1

1. 49.5
2. 88.1
3. 20.1

# batch size: 2; output growth per entry
1. C=CCN=C(N)SCCCCCCSC(N)=NCC=C
2. CN1CCN(Cc2ccc(NC(=O)c3cncc(C#Cc4cncc5ncccc45)c3)cc2C(F)(F)F)CC1

1: 94; 2: 9.58

----------
System: SR leukemia
Experiment Description: NCI-60 one-dose screen, 48 h
Run Conditions: 10 µM unless noted
This is part of a sample that, as a whole, favours compounds with a hit. Of some 83,000 tested, about 20% had one in any assay. The source made the active and inactive calls. The calls were made as follows: active = growth percent below 10; inactive = the rest.
Response enum: true = active, false = inactive

Below, 4 molecules whose answers are already recorded.
# Molecule, Study System, Group
rows = [
    ("O[C@@H](c1cc(C(F)(F)F)nc2c(C(F)(F)F)cccc12)[C@H]1CCCCN1", "SR leukemia", "true"),
    ("COc1cc2c(cc1O)[C@@]1(C)[C@H](c3ccccc3Br)OC(=O)N1CC2", "SR leukemia", "false"),
    ("Cn1cccc1/C=C1\\C(=O)Nc2ccccc21", "SR leukemia", "false"),
    ("Cn1c(O)c(C(/C=C/c2ccccc2)=Nc2ccccc2N)c(=O)n(C)c1=O", "SR leukemia", "true"),
]

Outcome logged for "O=C1Nc2ccc(F)cc2/C1=N/c1nnc(Sc2ccccc2)s1" in this assay:
false

Outcome logged for "Nc1c(C(=O)Nc2ccncc2)sc2nc3c(cc12)CCCCC3" in this assay:
false

Outcome logged for "N=C(N)SCc1cccc2c(CSC(=N)N)cccc12" in this assay:
false

Outcome logged for COc1ccc(C(c2cc(OC)c(OC)c(OC)c2)N2CCN(Cc3ccccc3)CC2)cc1 (stereo unspecified) in this assay:
false

Outcome logged for "O=C1NC(=O)c2c1c1c3ccccc3[nH]c1c1oc3cc(Br)ccc3c21" in this assay:
false

----------
So I've got a bunch of molecules here, and I need their growth values.
Test system: SK-MEL-28 melanoma
Experiment Description: NCI-60 one-dose screen, 48 h (100 = growth as untreated, 0 = no growth, -100 = all killed)
Run Conditions: 10 µM unless noted
About 83,000 compounds went through this panel and 20% of them were active in at least one assay; those are over-represented in the sample as a whole.
Numbers only, in %.

// solved cases for growth follow
# Molecule, Measurement Label, Observed Measurement
rows = [
    ("O=C(Cn1nnc2ccccc21)N/N=C/c1ccccc1F", "growth", 108),
    ("C=CCN=C(N)SCCCCCCSC(N)=NCC=C", "growth", 103),
    ("Cc1[nH]c(C(=O)Nc2ccc(C(N)=O)cc2NC(C)C)c(Cl)c1Cl", "growth", 105),
]

# batch size: 2; output growth per entry
1. O=C(N/N=C/c1ccc(Cl)cc1Cl)c1ccc2nc(-c3ccc(Cl)cc3)[nH]c2c1
2. CCOC(=O)c1ccc2c(c1)c1c(C)c3ccncc3c(C)c1n2C

[-9.23, -28.3]
